# TESTED ON: EZH2 Y641F mutant (PRC2 enzyme) (Homo sapiens (Human), UniProt Q15910, Y641F)
# Sequence (Q15910 whole entry Y641F): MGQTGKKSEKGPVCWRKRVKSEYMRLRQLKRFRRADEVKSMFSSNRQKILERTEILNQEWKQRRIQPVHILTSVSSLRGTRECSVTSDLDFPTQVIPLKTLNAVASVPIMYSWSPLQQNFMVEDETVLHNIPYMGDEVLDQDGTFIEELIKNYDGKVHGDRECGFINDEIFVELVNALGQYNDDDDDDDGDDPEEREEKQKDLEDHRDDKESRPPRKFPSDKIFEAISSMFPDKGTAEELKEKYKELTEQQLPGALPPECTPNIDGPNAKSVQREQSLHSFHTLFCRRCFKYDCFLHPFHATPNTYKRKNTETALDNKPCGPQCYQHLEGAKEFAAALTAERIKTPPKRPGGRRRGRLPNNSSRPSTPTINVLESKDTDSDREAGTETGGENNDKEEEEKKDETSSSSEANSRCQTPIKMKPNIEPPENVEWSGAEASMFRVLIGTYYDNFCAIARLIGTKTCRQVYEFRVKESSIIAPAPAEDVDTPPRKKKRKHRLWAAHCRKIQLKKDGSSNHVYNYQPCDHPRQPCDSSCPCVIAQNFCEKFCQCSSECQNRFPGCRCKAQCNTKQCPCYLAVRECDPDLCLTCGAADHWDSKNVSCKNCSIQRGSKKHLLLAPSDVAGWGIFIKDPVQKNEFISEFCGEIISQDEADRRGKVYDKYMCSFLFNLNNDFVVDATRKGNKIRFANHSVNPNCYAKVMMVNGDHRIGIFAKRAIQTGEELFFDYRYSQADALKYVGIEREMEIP
# Sequence (O75530 whole entry partner): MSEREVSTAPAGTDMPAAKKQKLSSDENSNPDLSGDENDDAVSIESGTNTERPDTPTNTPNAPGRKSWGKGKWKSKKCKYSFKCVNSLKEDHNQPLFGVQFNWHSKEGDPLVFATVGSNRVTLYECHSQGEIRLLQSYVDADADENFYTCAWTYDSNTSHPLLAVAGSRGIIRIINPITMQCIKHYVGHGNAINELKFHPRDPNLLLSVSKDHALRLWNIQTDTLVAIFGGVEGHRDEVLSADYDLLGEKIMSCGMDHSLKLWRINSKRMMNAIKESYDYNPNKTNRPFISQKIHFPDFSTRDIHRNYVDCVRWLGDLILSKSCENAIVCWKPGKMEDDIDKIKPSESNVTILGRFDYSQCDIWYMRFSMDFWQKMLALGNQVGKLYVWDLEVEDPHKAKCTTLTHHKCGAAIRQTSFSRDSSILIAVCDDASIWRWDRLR
# Sequence (Q15022 whole entry partner): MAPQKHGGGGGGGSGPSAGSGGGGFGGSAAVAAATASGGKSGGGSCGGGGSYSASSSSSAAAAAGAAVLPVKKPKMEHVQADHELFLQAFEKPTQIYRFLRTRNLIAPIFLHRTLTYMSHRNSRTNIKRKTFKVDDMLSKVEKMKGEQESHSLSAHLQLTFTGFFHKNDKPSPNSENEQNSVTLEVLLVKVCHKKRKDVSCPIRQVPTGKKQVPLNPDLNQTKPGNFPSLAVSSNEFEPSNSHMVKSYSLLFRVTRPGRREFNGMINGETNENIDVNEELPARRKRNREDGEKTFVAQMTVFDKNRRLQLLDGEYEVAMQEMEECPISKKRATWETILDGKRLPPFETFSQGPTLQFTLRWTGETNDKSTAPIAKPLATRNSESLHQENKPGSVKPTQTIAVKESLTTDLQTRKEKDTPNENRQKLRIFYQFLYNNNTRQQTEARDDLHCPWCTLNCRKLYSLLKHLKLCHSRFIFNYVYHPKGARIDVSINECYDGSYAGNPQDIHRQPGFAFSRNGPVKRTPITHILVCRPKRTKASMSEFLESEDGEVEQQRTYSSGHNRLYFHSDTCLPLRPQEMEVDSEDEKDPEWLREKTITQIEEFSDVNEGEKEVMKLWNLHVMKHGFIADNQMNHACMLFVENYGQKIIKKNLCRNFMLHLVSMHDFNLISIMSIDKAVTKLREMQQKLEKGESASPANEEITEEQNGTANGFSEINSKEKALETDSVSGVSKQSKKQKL
# Sequence (Q09028 whole entry partner): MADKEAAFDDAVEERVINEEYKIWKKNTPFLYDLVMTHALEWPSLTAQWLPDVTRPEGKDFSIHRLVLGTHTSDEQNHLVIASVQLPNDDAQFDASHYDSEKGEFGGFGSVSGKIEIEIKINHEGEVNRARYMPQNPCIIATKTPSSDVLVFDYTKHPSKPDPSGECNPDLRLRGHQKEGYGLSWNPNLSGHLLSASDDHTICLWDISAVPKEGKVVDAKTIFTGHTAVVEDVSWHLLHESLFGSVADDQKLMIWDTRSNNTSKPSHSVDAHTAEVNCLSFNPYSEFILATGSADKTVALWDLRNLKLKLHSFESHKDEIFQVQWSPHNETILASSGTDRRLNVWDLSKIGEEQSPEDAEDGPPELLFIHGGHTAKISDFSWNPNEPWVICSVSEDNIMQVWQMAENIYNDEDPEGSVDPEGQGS
# PROTOCOL SUMMARY: PRC2 enzyme assay on peptide substrate, EZH2 Y641F mutant (H3K27me2 peptide, 3H-SAM Flashplate)
# MEASUREMENT CONDITIONS: Y641F mutant PRC2 4 nM
Where a name gives a salt, the structure may show the parent alone.
We begin with a simple list: items and their reported pIC50.
Just so you know, pIC50 here is -log10 of the concentration in molar units; reply with that number alone.

Example entries and their recorded answers appear below.
# COMPOUND, PROPERTY NAME, EXPERIMENTAL VALUE
rows = [
    ("CCN(c1cc(Cl)cc(C(=O)NCc2c(C)[nH]n(C)c2=O)c1C)[C@@H]1COC[C@H]1O (relative stereo)", "pIC50", 4.58),
    ("CCCN(c1cc(-c2ccc(OCCOC)cc2)cc(C(=O)NCc2c(C)n(C)[nH]c2=O)c1C)[C@H]1CC[C@H](N(C)C)CC1", "pIC50", 6.47),
    ("CCN(c1cc(Cl)cc(C(=O)NCc2c(OC)nn(C)c2C)c1C)C1CCN(CCc2cccc(OC)c2)CC1", "pIC50", 5.37),
]

Asked: Which measured pIC50 value corresponds to "CCN(c1cc(Cl)cc(C(=O)NCc2c(C)n(C)[nH]c2=O)c1C)[C@H]1CC[C@H](N(C)Cc2cccc(OCCOC)c2)CC1" ?
Given back: 7.51

Asked: Field entry: "CCCCc1[nH]n(C)c(=O)c1CNC(=O)c1cc(Cl)cc(N(CC)[C@H]2CC[C@H](N(C)C)CC2)c1C"
Given back: 6.78

Asked: Another compound to look at: CCN(c1cc(Cl)cc(C(=O)NCc2cn(C)[nH]c2=O)c1C)[C@H]1CC[C@H](N(C)C)CC1 [Compound 31a, formate]
Given back: 6.64

Asked: Then this compound: "CCOc1n[nH]c(C)c1CNC(=O)c1cc(Cl)cc(N(CC)[C@H]2CC[C@H](N(C)C)CC2)c1C"
Given back: 5.12

Asked: Moving on to the next compound: "CCN(c1cc(Cl)cc(C(=O)NCc2c(C)n(C)[nH]c2=O)c1C)[C@H]1CC[C@H](N(C)Cc2cccc(OC)c2)CC1"
Given back: 8.00

---

# TESTED ON: wild-type EZH2 (PRC2 enzyme) (Homo sapiens (Human))
# Sequence (Q15910 whole entry): as the sequence (Q15910 whole entry Y641F) above, with F641Y counted along it
# Sequence (O75530 whole entry partner): as the sequence (O75530 whole entry partner) above
# Sequence (Q15022 whole entry partner): as the sequence (Q15022 whole entry partner) above
# Sequence (Q09028 whole entry partner): as the sequence (Q09028 whole entry partner) above
pIC50: −log10 of the molar value. Where a name gives a salt, the structure may show the parent alone.
Classification field: Condition met = pIC50 at or over 6; Condition not met = pIC50 under 6.

Worked examples follow.
# COMPOUND, LABEL CLASS
measured = [
    ("CCN(c1cc(Cl)cc(C(=O)NCc2c(OC)nn(C)c2N2CCCCC2)c1C)[C@H]1CC[C@H](N(C)C)CC1", "Condition not met"),
    ("CCCN(c1cc(-c2ccc(OCCOC)cc2)cc(C(=O)NCc2c(C)n(C)[nH]c2=O)c1C)[C@H]1CC[C@H](N(C)C)CC1", "Condition not met"),
    ("CCN(c1cc(Cl)cc(C(=O)NCc2c(C)nc3cc[nH]n3c2=O)c1C)[C@H]1CC[C@H](N(C)C)CC1", "Condition not met"),
    ("CCN(c1cc(-c2ccc(OCCOC)cc2)cc(C(=O)NCc2c(C)n(C)[nH]c2=O)c1C)[C@H]1CC[C@H](N(C)CCOC)CC1", "Condition not met"),
    ("CCN(c1cc(Cl)cc(C(=O)NCc2c(OC)nn(C)c2C)c1C)C1CCN(CCc2cccc(OC)c2)CC1", "Condition not met"),
]

Asked: Given the entry "CCN(c1cc(Cl)cc(C(=O)NCc2c(C)[nH]n(C)c2=O)c1C)[C@H]1CC[C@H](N(C)C)CC1" , answer whether its pIC50 meets or surpasses 6.
Given back: Condition met

Asked: Further, for "CCN(c1cc(Cl)cc(C(=O)NCc2c(OC)nn(CC)c2C)c1C)C1CCN(CCOC)CC1" ?
Given back: Condition not met

Asked: Here is the next compound: "CCN(c1cc(Cl)cc(C(=O)NCc2c(C)n(C)[nH]c2=O)c1C)[C@H]1CC[C@H](N(C)Cc2cccnc2)CC1"
Given back: Condition met

Asked: Here is the next compound: "CCN(c1cc(Cl)cc(C(=O)NCc2c(OC)nn(C)c2N2CCCCC2)c1C)[C@H]1CC[C@H](N(C)Cc2cccc(OC)c2)CC1"
Given back: Condition not met

Asked: Same again, this time with "CCN(c1cc(-c2ccc(CN3CCOCC3)cc2)cc(C(=O)NCc2c(OC)nn(C)c2C)c1C)[C@H]1CC[C@H](N(C)C)CC1"
Given back: Condition not met

Asked: Also need "CCN(c1cc(Cl)cc(C(=O)NCc2c(C)n(C)[nH]c2=O)c1C)C1CCN(CCc2cccc(OC)c2)CC1" , thanks.
Given back: Condition met

Asked: What would you report for CCO[C@@H]1COC[C@H]1N(CC)c1cc(Cl)cc(C(=O)NCc2c(C)[nH]n(C)c2=O)c1C (relative stereo) ?
Given back: Condition not met

Asked: CCN(c1cc(Cl)cc(C(=O)NCc2cn(C)[nH]c2=O)c1C)[C@H]1CC[C@H](N(C)C)CC1 [Compound 31a, formate] ?
Given back: Condition met

Asked: Now try CCN(c1cc(Cl)cc(C(=O)NCc2c(C)[nH][nH]c2=O)c1C)[C@H]1CC[C@H](N(C)C)CC1 [Compound 32, Formate] .
Given back: Condition met

Asked: And the next one, "CCN(c1cc(Cl)cc(C(=O)NCc2c(OC)nn(C)c2C)c1C)C1CCN(CCOC)CC1" ?
Given back: Condition not met

Asked: // same read-out, input: "CCN(c1cc(Cl)cc(C(=O)NCc2c(C)n(C)[nH]c2=O)c1C)C1CCN(CCOC)CC1"
Given back: Condition not met

---

Where a name gives a salt, the structure may show the parent alone.
Below are pIC50 values measured for UniProt Q15910.
Interpret pIC50 as the negative base-10 log of the concentration measured in mol/L.

# COMPOUND, TESTED ON, EXPERIMENTAL VALUE
data = [
    ("CCN(c1cc(Cl)cc(C(=O)NCc2c(SC)n(C)[nH]c2=O)c1C)[C@H]1CC[C@H](N(C)C)CC1 [Compound 31b, Formate]", "UniProt Q15910", 5.91),
]

Asked: Report pIC50 for "CCN(c1cc(Cl)cc(C(=O)NCc2c(C)cc3nc(C)[nH]n3c2=O)c1C)[C@H]1CC[C@H](N(C)C)CC1" tested on UniProt Q15910.
Given back: 4.46

Asked: Check "CCN(c1cc(Cl)cc(C(=O)NCc2c(C)nn(C)c2OC)c1C)[C@H]1CC[C@H](N(C)C)CC1" too.
Given back: 5.13

---

# TESTED ON: wild-type EZH2 (PRC2 enzyme) (Homo sapiens (Human))
pIC50: −log10 of the molar value.
Please mark Criterion met if the recorded pIC50 is equal to or greater than 5, and Criterion not met if it falls below.

The examples below pair each entry with its known result.
# COMPOUND, TESTED ON, LABEL CLASS
measured = [
    ("CCN(c1cc(Cl)cc(C(=O)NCc2c(C)nn(C)c2OC)c1C)[C@@H]1COC[C@H]1OCCOC (relative stereo)", "wild-type EZH2 (PRC2 enzyme) (Homo sapiens (Human))", "Criterion not met"),
    ("CCN(c1cc(Cl)cc(C(=O)NCc2c(OC)nn(C)c2N2CCOCC2)c1C)[C@H]1CC[C@H](N(C)C)CC1", "wild-type EZH2 (PRC2 enzyme) (Homo sapiens (Human))", "Criterion not met"),
]

Asked: Is pIC50 for "CCN(c1cc(Cl)cc(C(=O)NCc2c(C(C)C)[nH]n(C)c2=O)c1C)[C@H]1CC[C@H](N(C)C)CC1" at or above 5?
Given back: Criterion met

Asked: Similarly, "CCN(c1cc(Cl)cc(C(=O)NCc2c(OC)nn3c(C)cc(C)nc23)c1C)[C@H]1CC[C@H](N(C)C)CC1" ?
Given back: Criterion not met

Asked: What do you have for "CCn1[nH]c(=O)c(CNC(=O)c2cc(Cl)cc(N(CC)[C@H]3CC[C@H](N(C)C)CC3)c2C)c1C" ?
Given back: Criterion met

Asked: Also, "CCn1[nH]c(=O)c(CNC(=O)c2cc(Cl)cc(N(CC)[C@H]3CC[C@H](N(C)Cc4ccc(OC)cc4)CC3)c2C)c1C" please.
Given back: Criterion met

Asked: Try the compound "CCOc1n[nH]c(C)c1CNC(=O)c1cc(Cl)cc(N(CC)[C@H]2CC[C@H](N(C)C)CC2)c1C"
Given back: Criterion not met

Asked: Another compound to check: CCN(c1cc(Cl)cc(C(=O)NCc2c(C)[nH]n(C)c2=O)c1C)[C@@H]1COC[C@H]1O (relative stereo)
Given back: Criterion not met

Asked: How about "CCN(c1cc(Cl)cc(C(=O)NCc2c(N3CCCCC3)n(C)[nH]c2=O)c1C)[C@H]1CC[C@H](N(C)C)CC1" ?
Given back: Criterion met

Asked: For "CCN(c1cc(Cl)cc(C(=O)NCc2c(C)n(C)n(C)c2=O)c1C)[C@H]1CC[C@H](N(C)C)CC1" then?
Given back: Criterion met

Asked: Next compound up: "CCn1[nH]c(=O)c(CNC(=O)c2cc(Cl)cc(N(CC)[C@H]3CC[C@H](N(C)CCOC)CC3)c2C)c1C"
Given back: Criterion met

Asked: "CCN(c1cc(Cl)cc(C(=O)NCc2c(OC)nn(C)c2OC)c1C)[C@H]1CC[C@H](N(C)C)CC1" ?
Given back: Criterion not met

Asked: Same for "CCN(c1cc(Cl)cc(C(=O)NCc2c(C)n(C)[nH]c2=O)c1C)[C@H]1CC[C@H](N(C)Cc2cccc(OCCOC)c2)CC1"
Given back: Criterion met

Asked: Also need "CCN(c1cc(Cl)cc(C(=O)NCc2c(OC)nn3cccnc23)c1C)[C@H]1CC[C@H](N(C)C)CC1" , thanks.
Given back: Criterion not met
